IC50 values, listed per item
Biological target: full-length beta-Catenin (Uniprot ID P35222) (Homo sapiens)
Construct: 10 nM full-length beta-Catenin (Uniprot ID P35222)
Assay: Fluorescence polarization IC50 (beta-catenin / 5FAM-TCF4 10-53 competition)
Assay type: binding
Details: fluorescence polarization; read-out: beta-Catenin FP IC50
Field: numeric (nM). Do not append units.

Name the recorded IC50 of the item CC(=O)N1CCC[C@]12CC=CCCCC1(CCCC=CCCCOC(=O)N3CC[C@@](C(=O)N[C@@H](Cc4ccccc4)C(=O)N[C@@H](Cc4csc5ccccc45)C(=O)N[C@@H](CCC(N)=O)C(N)=O)(C3)NC(=O)[C@H](CC(C)C)NC(=O)[C@H](Cc3ccccc3)NC(=O)[C@H](C)NC(=O)[C@H](CCCCNC(C)C)NC(=O)[C@H]([C@@H](C)O)NC(=O)[C@H](CC(N)=O)NC1=O)NC(=O)[C@H](C)NC(=O)[C@H](CC(=O)O)NC2=O (stereo partly drawn) [I-1376] in your answer.
4210

Name the recorded IC50 of the item CC(C)C[C@H](NC(=O)[C@]12CCN(C1)C(=O)OCCCCCCCCC1(CCCCCCC(=O)N3CCC[C@@]3(C)C(=O)N[C@@H](CC(=O)O)C(=O)N1)C(=O)N[C@@H](C)C(=O)N[C@@H](CC(=O)O)C(=O)N[C@@H](CC(=O)O)C(=O)N[C@@H](C)C(=O)N[C@@H](C)C(=O)N[C@@H](Cc1ccccc1)C(=O)N2)C(=O)N[C@@H](Cc1ccsc1)C(=O)N[C@@H](Cc1csc2ccccc12)C(=O)N[C@@H](CCC(N)=O)C(N)=O (stereo partly drawn) [I-2608] in your answer.
251

Now examine the next entry.
Name the recorded IC50 of the item CC(=O)N1CCC[C@]12CC=CCCCC1(CCCC=CCCCOC(=O)N3CC[C@@](C(=O)N[C@@H](Cc4ccsc4)C(=O)N[C@@H](Cc4csc5ccccc45)C(=O)N[C@@H](CCC(N)=O)C(N)=O)(C3)NC(=O)[C@H](CC(C)C)NC(=O)[C@H](Cc3ccccc3)NC(=O)[C@H](C)NC(=O)[C@H](C)NC(=O)[C@H](CN(CC(=O)O)CC(F)(F)F)NC(=O)[C@H](C(C)(C)C(=O)O)NC1=O)NC(=O)[C@H](CC(C)(C)C)NC(=O)[C@H](CC(=O)O)NC2=O (stereo partly drawn) [I-1771] in your answer.
209

---

Biological target: beta-catenin/TCF4 engagement (Homo sapiens)
Construct: expressed in transfected cells; host or cells: HEK293
Test: Nano-BRET target engagement assay (B-cat-Halo & TCF4-Luc in HEK293 cells)
Format: cell-based
Conditions: absolute IC50; read-out: NanoBRET Abs IC50
pIC50: −log10 of the molar value.
readout: pIC50

Answered examples (2):
Name the recorded pIC50 of the item CC(=O)N1CCC[C@]12CC=CCCCC1(CCCC=CCCCCCC[C@@](C)(C(=O)N[C@@H](Cc3ccsc3)C(=O)N[C@@H](Cc3csc4ccccc34)C(=O)N[C@@H](CCC(N)=O)C(N)=O)NC(=O)[C@H](CC(N)=O)NC(=O)[C@H](Cc3ccccc3)NC(=O)[C@H](C)NC(=O)[C@H](C)NC(=O)[C@H](CN(CCCC(F)(F)F)CC(=O)O)NC(=O)[C@H](CC(=O)O)NC1=O)NC(=O)[C@H](CC(C)(C)C)NC(=O)[C@H](CC(=O)O)NC2=O (stereo partly drawn) [I-1454] in your answer.
4.57

Name the recorded pIC50 of the item CC(=O)N1CCC[C@]12CC=CCCCC1(CCCC=CCCCOC(=O)N3CC[C@@](C(=O)N[C@@H](Cc4ccccc4Cl)C(=O)N[C@@H](Cc4csc5ccccc45)C(=O)N[C@@H](CCC(N)=O)C(N)=O)(C3)NC(=O)[C@H](CC(N)=O)NC(=O)[C@H](Cc3ccccc3)NC(=O)[C@H](C)NC(=O)[C@H](C)NC(=O)[C@H](CC(=O)O)NC(=O)[C@H](CC(=O)O)NC1=O)NC(=O)[C@H](CC(C)(C)C)NC(=O)[C@H](CC(=O)S)NC2=O (stereo partly drawn) [I-1721] in your answer.
< 4.70

Further cases:
Name the recorded pIC50 of the item CC(=O)N1CCC[C@]12CC=CCCCC1(CCCC=CCCCOC(=O)N3CC[C@@](C(=O)N[C@@H](Cc4ccsc4)C(=O)N[C@@H](Cc4csc5ccccc45)C(=O)N[C@@H](Cc4ccccc4)C(N)=O)(C3)NC(=O)[C@H](CC(C)C)NC(=O)[C@H](Cc3ccccc3)NC(=O)[C@H](C)NC(=O)[C@H](CCCCNC(C)C)NC(=O)[C@H](CN(CC(=O)O)CC(F)(F)F)NC(=O)[C@H](CC(=O)O)NC1=O)NC(=O)[C@H](CC(C)(C)C)NC(=O)[C@H](CC(=O)O)NC2=O (stereo partly drawn) [I-1761] in your answer.
< 4.70

---

IC50 values, listed per item
Target: beta-catenin/TCF4 engagement (Homo sapiens)
Construct: expressed in transfected cells; host or cells: HEK293
Sequence (P35222 1-781): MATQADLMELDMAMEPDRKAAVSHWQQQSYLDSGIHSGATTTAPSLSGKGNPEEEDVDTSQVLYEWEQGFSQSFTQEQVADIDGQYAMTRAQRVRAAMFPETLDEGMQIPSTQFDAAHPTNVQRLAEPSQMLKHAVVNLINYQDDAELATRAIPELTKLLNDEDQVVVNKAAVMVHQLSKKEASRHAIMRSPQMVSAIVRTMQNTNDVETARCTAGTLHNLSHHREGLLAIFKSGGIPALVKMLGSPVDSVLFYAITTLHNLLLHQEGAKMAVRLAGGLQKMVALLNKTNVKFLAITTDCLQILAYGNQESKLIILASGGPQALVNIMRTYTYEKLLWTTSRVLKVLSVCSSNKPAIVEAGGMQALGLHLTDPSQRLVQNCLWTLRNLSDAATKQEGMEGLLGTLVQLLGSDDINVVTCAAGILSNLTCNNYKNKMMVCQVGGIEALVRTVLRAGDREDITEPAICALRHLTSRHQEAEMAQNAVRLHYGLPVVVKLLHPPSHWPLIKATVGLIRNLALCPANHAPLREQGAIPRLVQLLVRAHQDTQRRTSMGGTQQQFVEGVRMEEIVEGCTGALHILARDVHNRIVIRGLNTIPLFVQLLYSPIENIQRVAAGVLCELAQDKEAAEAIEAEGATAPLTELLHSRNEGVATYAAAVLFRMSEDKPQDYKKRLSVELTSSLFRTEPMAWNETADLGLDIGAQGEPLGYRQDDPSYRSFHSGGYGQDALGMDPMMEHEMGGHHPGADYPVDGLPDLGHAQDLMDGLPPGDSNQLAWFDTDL
Test: Nano-BRET target engagement assay (B-cat-Halo & TCF4-Luc in HEK293 cells)
Format: cell-based
Conditions: absolute IC50; read-out: NanoBRET Abs IC50
Field: numeric (µM). Do not append units.

Name the recorded IC50 of the item CC(=O)N1CCC[C@]12CC=CCCCC1(CCCC=CCCCOC(=O)N3CC[C@@](C(=O)N[C@@H](Cc4ccsc4)C(=O)N[C@@H](Cc4csc5ccccc45)C(=O)N[C@@H](CCC(N)=O)C(N)=O)(C3)NC(=O)[C@H](CC(C)C)NC(=O)[C@H](Cc3ccccc3)NC(=O)[C@H](C)NC(=O)[C@H](C)NC(=O)[C@H](CCN(CCC(F)(F)F)CC(=O)O)NC(=O)[C@H](CC(=O)O)NC1=O)NC(=O)[C@H](CC(C)(C)C)NC(=O)[C@H](CC(=O)O)NC2=O (some centres unmarked) [I-1839] in your answer.
14.6

Name the recorded IC50 of the item CC(=O)N1CCC[C@]12CC=CCCCC1(CCCC=CCCCOC(=O)N3CC[C@@](C(=O)N[C@@H](Cc4ccsc4)C(=O)N[C@@H](Cc4csc5ccccc45)C(=O)N[C@@H](C)C(N)=O)(C3)NC(=O)[C@H](C(C)C)NC(=O)[C@H](Cc3ccccc3)NC(=O)[C@H](C)NC(=O)[C@H](CCC(=O)N(C)C)NC(=O)[C@H](Cc3cccc(C(=O)O)c3)NC(=O)[C@H](CC(=O)O)NC1=O)NC(=O)[C@H](CC(C)(C)C)NC(=O)[C@H](CC(=O)O)NC2=O (some centres unmarked) [I-2303] in your answer.
1.2

Name the recorded IC50 of the item CC(=O)N1CCC[C@]12CC=CCCCC1(CCCC=CCCCOC(=O)N3CC[C@@](C(=O)N[C@@H](Cc4ccccc4Cl)C(=O)N[C@@H](Cc4csc5ccccc45)C(=O)N[C@@H](CCC(N)=O)C(N)=O)(C3)NC(=O)[C@H](CCCCNC(C)C)NC(=O)[C@H](Cc3ccccc3)NC(=O)[C@H](C)NC(=O)[C@H](C)NC(=O)[C@H](CC(=O)O)NC(=O)[C@H](CC(=O)O)NC1=O)NC(=O)[C@H](CC(C)(C)C)NC(=O)[C@H](CC(=O)O)NC2=O (some centres unmarked) [I-1278] in your answer.
18

Name the recorded IC50 of the item CC(=O)N1CCC[C@]12CC=CCCCC1(CCCC=CCCCOC(=O)N3CC[C@@](C(=O)N[C@@H](Cc4ccsc4)C(=O)N[C@@H](Cc4cccc5ccccc45)C(=O)N[C@@H](CCC(N)=O)C(N)=O)(C3)NC(=O)[C@H](CC(C)C)NC(=O)[C@H](Cc3ccccc3)NC(=O)[C@H](C)NC(=O)[C@H](C)NC(=O)[C@H](CC(=O)O)NC(=O)[C@H](CC(=O)O)NC1=O)NC(=O)[C@H](CC(C)(C)C)NC(=O)[C@H](CC(=O)O)NC2=O (some centres unmarked) [I-1234] in your answer.
23.9

Now examine the next entry.
Name the recorded IC50 of the item CC(=O)NCCCC[C@@H]1NC(=O)[C@H](Cc2ccccc2)NC(=O)[C@H](C)NC(=O)[C@H](C)NC(=O)[C@H](Cc2cccc(C(=O)O)c2)NC(=O)[C@H](CC(=O)O)NC(=O)C2(CCCC=CCCCOC(=O)N3CC[C@@](C(=O)N[C@@H](Cc4ccccc4C(F)(F)F)C(=O)N[C@@H](Cc4csc5ccccc45)C(=O)N[C@@H](CCC(=O)N(C)C)C(N)=O)(C3)NC1=O)CCCC=CC[C@]1(CCCN1C(C)=O)C(=O)N[C@@H](CC(=O)O)C(=O)N[C@@H](CC(C)(C)C)C(=O)N2 (some centres unmarked) [I-2540] in your answer.
3.5
